- measurement.target: GDP-bound KRAS wild-type protein (Homo sapiens)
- Sequence (P01116 whole entry): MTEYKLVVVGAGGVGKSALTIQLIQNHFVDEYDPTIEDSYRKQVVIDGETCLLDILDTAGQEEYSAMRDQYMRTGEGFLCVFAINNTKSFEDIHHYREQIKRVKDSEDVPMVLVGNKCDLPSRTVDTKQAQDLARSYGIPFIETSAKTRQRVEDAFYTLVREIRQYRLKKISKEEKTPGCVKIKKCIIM
- test.details: Binding to KRAS by surface plasmon resonance (SPR), Single Cycle Kinetics
- test.conditions: SPR Single Cycle Kinetics, GDP-bound KRAS wild-type protein, 1:1 binding model; read-out: KRAS KD
Where a SMILES comes first, the peptide text is derived from it. Bridges are numbered along the chain shown (N, C = ends). [ ]: non-standard residue; d: D form. The star is where a group is joined. hPhe(3-Cl-4-CF3) = N[C@@H](CCc1ccc(C(F)(F)F)c(Cl)c1)C(=O)O; NPrPhe(4-CF3) = CCCN[C@@H](Cc1ccc(C(F)(F)F)cc1)C(=O)O; NMeGly(cPent) = CN[C@H](C(=O)O)C1CCCC1; Pro(4,4-Me2) = CC1(C)CN[C@H](C(=O)O)C1; NMeD = CN[C@@H](CC(=O)O)C(=O)O; NMeL = CN[C@@H](CC(C)C)C(=O)O; Azetidin(1-yl) = C1CN(*)C1; Morpholide = C1CN(*)CCO1; NMeA = CN[C@@H](C)C(=O)O; Ac5c = NC1(C(=O)O)CCCC1; Aze = O=C(O)[C@@H]1CCN1; NEtG = CCNCC(=O)O; Sar = CNCC(=O)O
Recorded pKd by entry
Answer as the number alone; pKd is minus log10 of concentration in mol/L.

Some molecules with known pKd results, for comparison:
{"columns": ["molecule", "pKd"],
 "data": [
  ["CCO[C@@H]1C[C@H]2C(=O)NC3(CCC3)C(=O)N(C)[C@@H](C3CCCC3)C(=O)N(C)[C@H](C(=O)N(C)C)CC(=O)N(C)[C@@H](COC)C(=O)N[C@@H]([C@@H](C)CC)C(=O)N(C)CC(=O)N(C)[C@H]3CCCCCN(C3=O)[C@@H](Cc3ccc(C(F)(F)F)cc3)C(=O)N(C)CC(=O)N[C@@H](CCc3cc(F)c(C(F)(F)F)c(F)c3)C(=O)N2C1", 9.80],
  ["CCCN1C(=O)[C@@H]2CCN2C(=O)[C@H](C)N(C)C(=O)[C@H]([C@@H](C)CC)NC(=O)[C@H](CC(C)C)N(C)C(=O)C[C@@H](C(=O)N2CCC2)N(C)C(=O)[C@H](C2CCCC2)N(C)C(=O)C2(CCCC2)NC(=O)[C@@H]2CCCN2C(=O)[C@H](CCc2ccc(C(F)(F)F)c(Cl)c2)NC(=O)CN(C)C(=O)[C@@H]1Cc1ccc(C(F)(F)F)cc1 [PP0181] ([NMeL]I[NMeA][Aze][NPrPhe(4-CF3)][Sar][hPhe(3-Cl-4-CF3)]P[Ac5c][NMeGly(cPent)][NMeD]-{Azetidin(1-yl)}; lactam N-11)", 10.09]
]}

Task: Kindly state the measured pKd obtained for CCCN1C(=O)CN(C)C(=O)CN(CC)C(=O)[C@H]([C@@H](C)CC)NC(=O)[C@H](CC(C)C)N(C)C(=O)C[C@@H](C(=O)N2CCOCC2)N(C)C(=O)[C@H](C2CCCC2)N(C)C(=O)C2(CCCC2)NC(=O)[C@@H]2CC(C)(C)CN2C(=O)[C@H](CCc2ccc(C(F)(F)F)c(Cl)c2)NC(=O)CN(C)C(=O)[C@@H]1Cc1ccc(C(F)(F)F)cc1 [PP0450] ([NMeL]I[NEtG][Sar][NPrPhe(4-CF3)][Sar][hPhe(3-Cl-4-CF3)][Pro(4,4-Me2)][Ac5c][NMeGly(cPent)][NMeD]-Morpholide; lactam N-11) with GDP-bound KRAS wild-type protein (Homo sapiens).
Output: 9.42
